Each entry below carries its reported pKi.
- SUBJECT OF TEST: D(2) dopamine receptor (Homo sapiens)
- Sequence (P14416 whole entry): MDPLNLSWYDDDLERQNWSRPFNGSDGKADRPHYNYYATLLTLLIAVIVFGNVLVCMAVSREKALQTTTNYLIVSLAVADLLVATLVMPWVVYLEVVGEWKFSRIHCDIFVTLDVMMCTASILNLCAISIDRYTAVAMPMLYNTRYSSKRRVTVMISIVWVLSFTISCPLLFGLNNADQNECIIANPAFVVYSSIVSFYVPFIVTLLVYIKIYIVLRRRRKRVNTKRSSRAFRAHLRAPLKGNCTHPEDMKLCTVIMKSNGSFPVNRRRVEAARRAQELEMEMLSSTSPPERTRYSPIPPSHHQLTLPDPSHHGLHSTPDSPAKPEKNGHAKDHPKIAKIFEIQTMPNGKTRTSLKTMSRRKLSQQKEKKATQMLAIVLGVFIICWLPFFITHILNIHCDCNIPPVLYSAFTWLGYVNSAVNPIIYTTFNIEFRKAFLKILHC
- EXPERIMENT: Displacement of [3H]methylspiperone from human dopamine D2 receptor expressed in CHO cells
- Type: cell-based
Remember the convention: pKi equals -log10 of concentration in molar.

q: Test system D(2) dopamine receptor (Homo sapiens); read-out pKi; what value for COc1ccc(C(=O)NN2c3ccc(Cl)cc3N=C(N3CCN(C)CC3)c3ccccc32)cc1 ?
a: 5.52

q: So what pKi did CN1CCN(C2=Nc3cc(Cl)ccc3N(NC(=O)c3nccc4ccccc34)c3ccccc32)CC1 get with D(2) dopamine receptor (Homo sapiens)?
a: 6.32

q: Any idea what pKi came out for CN1CCN(C2=Nc3cc(Cl)ccc3N(NC(=O)c3c(Cl)cccc3Cl)c3ccccc32)CC1 on D(2) dopamine receptor (Homo sapiens)?
a: 6.62

q: Kindly state the measured pKi obtained for CN1CCN(C2=Nc3cc(Cl)ccc3N(NC(=O)c3cccc(I)c3)c3ccccc32)CC1 with D(2) dopamine receptor (Homo sapiens).
a: 6.46

q: Report pKi for CCCC(=O)NN1c2ccc(Cl)cc2N=C(N2CCN(C)CC2)c2ccccc21 tested on D(2) dopamine receptor (Homo sapiens).
a: 6.40

q: Provide value of pKi for this record tested with D(2) dopamine receptor (Homo sapiens): CN1CCN(C2=Nc3cc(Cl)ccc3N(NC(=O)c3ccccc3N3CCN(C)CC3)c3ccccc32)CC1
a: 5.42

q: What value of pKi on D(2) dopamine receptor (Homo sapiens) does CN1CCN(C2=Nc3cc(Cl)ccc3N(NC(=O)C3CCCCC3)c3ccccc32)CC1 have?
a: 5.75

q: Field: pKi (D(2) dopamine receptor (Homo sapiens)). Entry: CN1CCN(C2=Nc3cc(Cl)ccc3N(NC(=O)c3ccc4ccccc4c3)c3ccccc32)CC1
a: 5.88

q: Give D(2) dopamine receptor (Homo sapiens) pKi for CN1CCN(C2=Nc3cc(Cl)ccc3N(NC(=O)c3ccccc3-n3ccnc3)c3ccccc32)CC1
a: 5.52

---

- SUBJECT OF TEST: Alpha-2A adrenergic receptor (Homo sapiens, UniProt P08913)
- Sequence (P08913 whole entry): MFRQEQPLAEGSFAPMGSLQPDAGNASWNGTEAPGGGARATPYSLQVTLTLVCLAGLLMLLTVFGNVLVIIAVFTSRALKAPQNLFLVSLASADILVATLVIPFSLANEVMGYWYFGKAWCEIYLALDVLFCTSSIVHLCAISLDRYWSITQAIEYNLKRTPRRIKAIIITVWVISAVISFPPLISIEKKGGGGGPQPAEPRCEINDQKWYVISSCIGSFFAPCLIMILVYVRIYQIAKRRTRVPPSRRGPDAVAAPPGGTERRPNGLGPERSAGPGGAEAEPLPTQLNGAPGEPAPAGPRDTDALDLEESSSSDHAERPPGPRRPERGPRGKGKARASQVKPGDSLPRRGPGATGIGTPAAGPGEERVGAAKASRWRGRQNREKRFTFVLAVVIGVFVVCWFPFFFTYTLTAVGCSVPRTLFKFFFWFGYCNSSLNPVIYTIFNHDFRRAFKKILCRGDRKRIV
- EXPERIMENT: Binding affinity at adrenergic alpha2A receptor
PROPERTY MEASURED: Ki (nM)
Give a bare numeral; the unit nM is implied.

The cases that follow already have their Ki on record.
CN1CCN(C2=Nc3cc(Cl)ccc3N(NC(=O)c3ccccc3Cl)c3ccccc32)CC1 455
COc1cccc(OC)c1C(=O)NN1c2ccc(Cl)cc2N=C(N2CCN(C)CC2)c2ccccc21 169
CN1CCN(C2=Nc3cc(Cl)ccc3N(NC(=O)c3c(N)cccc3Cl)c3ccccc32)CC1 327

q: What value of Ki has been recorded for this entry: Cc1cccc(C)c1C(=O)NN1c2ccc(Cl)cc2N=C(N2CCN(C)CC2)c2ccccc21
a: 791

The values you see were collected from ChEMBL document CHEMBL1146871.
